# tested-system: 72 kDa type IV collagenase (Homo sapiens)
# assay-remarks: Binding affinity to N-terminal (His6)-MBP tagged full-length human proMMP2 expressed in Escherichia coli BL21(DE3) RIL assessed as reduction in Rhod-cy(WPHPY binding incubated for 30 mins by fluorescence polarization assay
The source made the active and inactive calls. The calls are words filed in the database; no cut-off is given here. *1 amine or outer side, *2 acyl side, *3 side chain or, on linkers, in order; H or OH if unused. Where a SMILES comes first, the peptide text is derived from it. Bridges are numbered along the chain shown (N, C = ends). Triazole bridges read from a SMILES are 1,4-linked. [ ]: non-standard residue; d: D form. The star is where a group is joined. RhodamineB = CCN(CC)c1ccc2c(-c3ccccc3C(=O)*)c3ccc(=[N+](CC)CC)cc-3oc2c1; Lys(N3) = [N-]=[N+]=NCCCC[C@H](N)C(=O)O; NMeGABA = CN(CCCC(=O)[*:2])[*:1]; Pra = C#CC[C@H](N)C(=O)O
readout-label: Activity

These recorded examples may help you get a feel for the data.
{"compound": "C[C@@H]1NC(=O)[C@@H](N)Cc2cn(nn2)CCCC[C@@H](C(N)=O)NC(=O)[C@H](Cc2ccc(O)cc2)NC(=O)[C@@H]2CCCN2C(=O)[C@H](Cc2c[nH]cn2)NC(=O)[C@@H]2CCCN2C1=O (H-[Pra]APHPY[Lys(N3)]-NH2; triazole 1-7)", "Activity": "Active"}
{"compound": "C[C@@H]1NC(=O)[C@H](Cc2c[nH]cn2)NC(=O)[C@@H]2CCCN2C(=O)[C@H](Cc2c[nH]c3ccccc23)NC(=O)[C@@H](N)Cc2cn(nn2)CCCC[C@@H](C(N)=O)NC(=O)[C@H](Cc2ccc(O)cc2)NC1=O (H-[Pra]WPHAY[Lys(N3)]-NH2; triazole 1-7)", "Activity": "Active"}
{"compound": "C[C@@H]1NC(=O)[C@H](Cc2c[nH]c3ccccc23)NC(=O)[C@@H](N)Cc2cn(nn2)CCCC[C@@H](C(N)=O)NC(=O)[C@H](Cc2ccc(O)cc2)NC(=O)[C@@H]2CCCN2C(=O)[C@H](Cc2c[nH]cn2)NC1=O (H-[Pra]WAHPY[Lys(N3)]-NH2; triazole 1-7)", "Activity": "Active"}
{"compound": "C[C@@H]1NC(=O)[C@@H]2CCCN2C(=O)[C@H](Cc2c[nH]cn2)NC(=O)[C@@H]2CCCN2C(=O)[C@H](Cc2c[nH]c3ccccc23)NC(=O)[C@@H](N)Cc2cn(nn2)CCCC[C@@H](C(N)=O)NC1=O (H-[Pra]WPHPA[Lys(N3)]-NH2; triazole 1-7)", "Activity": "Active"}

Give the value of Activity reported for the following: CCN(CC)c1ccc2c(-c3ccccc3C(=O)N(C)CCCC(=O)N[C@H]3Cc4cn(nn4)CCCC[C@@H](C(N)=O)NC(=O)[C@H](Cc4ccc(O)cc4)NC(=O)[C@@H]4CCCN4C(=O)[C@H](Cc4c[nH]cn4)NC(=O)[C@@H]4CCCN4C(=O)[C@H](Cc4c[nH]c5ccccc45)NC3=O)c3ccc(=[N+](CC)CC)cc-3oc2c1 (RhodamineB-[NMeGABA][Pra]WPHPY[Lys(N3)]-NH2; triazole 2-8)
Active
